Tested on: MALME-3M melanoma
Assay Text: NCI-60 one-dose screen, 48 h (100 = growth as untreated, 0 = no growth, -100 = all killed)
Test Settings: 10 µM unless noted
This is part of a sample that, as a whole, favours compounds with a hit. Of some 83,000 tested, about 20% had one in any assay.
Dear colleague, classification is by growth, with ranges listed here: low class: < 40%; middle class: ≥ 40% and < 90%; high class: ≥ 90%

>  <Compound>
COc1ccc(S(=O)(=O)NCCCNc2nccc(-c3c(-c4cccc(N)c4)nc4sccn34)n2)cc1

>  <Assigned Class>
high class

$$$$
>  <Compound>
COc1ccc(CN2C(=O)/C(=C\c3cc(OC)c(OC)c(OC)c3)c3cc(OC)ccc32)cc1

>  <Assigned Class>
low class

$$$$
>  <Compound>
Cc1ccc(S(=O)(=O)n2cc(-c3csc(-c4cn(C)c5ncccc45)n3)c3ccccc32)cc1

>  <Assigned Class>
middle class

$$$$

Exam item: assign CCCCCCCCCCCCCCCCNCCC[C@@H](C)[C@H]1CC[C@H]2[C@@H]3[C@H](OCCCN)C[C@@H]4C[C@H](OCCCN)CC[C@]4(C)[C@H]3C[C@H](OCCCN)[C@]12C to the correct category.
low class

Exam item: assign COc1c2ccccc2c(OC)c2[nH]c(=O)ccc12 to the correct category.
low class

Exam item: assign NS(=O)(=O)c1ccc(-n2ncc3c(=O)[nH]c(CN4CCN(c5cc6c(cc5F)c(=O)c(C(=O)O)cn6C5CC5)CC4)nc32)cc1 to the correct category.
high class

----------
Test system: K-562 leukemia
Assay Text: NCI-60 one-dose screen, 48 h (100 = growth as untreated, 0 = no growth, -100 = all killed)
Test Settings: 10 µM unless noted
Compounds without any hit were thinned out: in the full panel of roughly 83,000, 20% have a hit.
Dear colleague, classification is by growth, with ranges listed here: A (below 10%), B (10% to below 70%), C (70% or more)

See these solved cases before continuing.
>  <Compound>
CCCCCN(CCCCC)CCC[C@@H](C)[C@H]1CC[C@H]2[C@@H]3[C@H](OCCCN)C[C@@H]4C[C@H](OCCCN)CC[C@]4(C)[C@H]3C[C@H](OCCCN)[C@]12C

>  <Assigned Class>
A

$$$$
>  <Compound>
O=[N+]([O-])c1cccc(-c2nc3sccn3c2-c2ccnc(NCCCNS(=O)(=O)c3cccc(F)c3)n2)c1

>  <Assigned Class>
A

$$$$
>  <Compound>
CC/C=C\C[C@H](O)C/C=C1/C(=O)C=C[C@@H]1C/C=C\CCCC(N)=O

>  <Assigned Class>
A

$$$$

Exam item: assign Cc1cc(=O)oc2cc(Oc3nc(-c4ccc(Cl)cc4)cn4c(-c5ccc(Cl)cc5)cnc34)ccc12 to the correct category.
C

Exam item: assign O=C(CN1CCN(c2cc3c(cc2F)c(=O)c(C(=O)N/N=C/c2ccccc2)cn3C2CC2)CC1)N/N=C\c1ccccc1 to the correct category.
B

Exam item: assign O=[N+]([O-])c1c(F)cccc1Nc1cccc(F)c1 to the correct category.
C

Exam item: assign Cn1c(=O)c2[nH]c(C(O)C(O)C(O)C(O)CO)nc2n(C)c1=O (stereo not given) to the correct category.
C

Exam item: assign O=C(/C=C\c1ccc2ccccc2n1)c1cc(Cl)ccc1O to the correct category.
C

----------
Tested on: HOP-62 NSCLC
Assay Text: NCI-60 one-dose screen, 48 h
Test Settings: 10 µM unless noted
The panel holds about 83,000 compounds, 20% with a hit somewhere; the sample as a whole holds those more often. Active and inactive are the calls of the source. The calls were made as follows: active = growth percent below 10; inactive = the rest.
Just give me one of these, please: active, inactive

See these solved cases before continuing.
>  <Compound>
COc1cccc(/C=C\C(=O)c2ccccc2)c1

>  <Assigned Class>
inactive

$$$$
>  <Compound>
C=C1CC2(OC1=O)C(=O)Nc1ccccc12 (centres undefined)

>  <Assigned Class>
inactive

$$$$
>  <Compound>
CC(=O)OC1Oc2cc(C)c(C)cc2-c2oc(=O)c(-c3cc4ccc(N(C)C)cc4oc3=O)cc21 (centres undefined)

>  <Assigned Class>
inactive

$$$$

How was COc1ccc(N(Cc2cc(OC)c(OC)c(OC)c2)C2OC(=O)c3ccccc32)cc1 (centres undefined) classified in this test?
inactive

How was Cc1ccc(-c2nc(/C=N/Nc3cc(C)nc4ccc(Cl)cc34)c(C)o2)cc1 classified in this test?
inactive

How was CC(=O)OCC1OC(OC2=C(CC=C(Cl)Cl)C(=O)c3ccccc3C2=O)C(OC(C)=O)C(OC(C)=O)C1OC(C)=O (centres undefined) classified in this test?
inactive

How was COc1ccc(/C=N\NC(=O)c2ccncc2)cc1O classified in this test?
inactive

How was CCCCCCCCCCCCCCCCCCNC(=O)[C@H]1CSC(c2ccc(F)c(OC)c2)N1 (some centres undefined) classified in this test?
active

----------
System: RXF 393 renal
Assay Text: NCI-60 one-dose screen, 48 h (100 = growth as untreated, 0 = no growth, -100 = all killed)
Test Settings: 10 µM unless noted
The panel holds about 83,000 compounds, 20% with a hit somewhere; the sample as a whole holds those more often.
Threshold -10%. growth below it: t. growth at it or above: f.

>  <Compound>
CCOC(=O)c1c2ncccc2n2c(=O)n(-c3ccc(Cl)cc3)nnc12

>  <Assigned Class>
f

$$$$
>  <Compound>
Cn1c(=O)c2[nH]c(C(O)C(O)C(O)C(O)CO)nc2n(C)c1=O (stereo not given)

>  <Assigned Class>
f

$$$$
>  <Compound>
O=C(/C=C/c1ccc(B(O)O)cc1)/C=C/c1ccc(B(O)O)cc1

>  <Assigned Class>
f

$$$$

State whether -10% exceeds growth recorded for O=C1Nc2ccccc2/C1=C/C(=N/c1nnc(-c2ccc(Cl)cc2)s1)c1ccccc1 .
t

State whether -10% exceeds growth recorded for COc1cc2nc3cc([N+](=O)[O-])ccc3c(NCCCNCC(C)(C)O)c2cc1OC .
t

State whether -10% exceeds growth recorded for COc1cc(OC)c(/C=C/C(=O)c2c(OC)cc(OC)cc2OC)c(OC)c1 .
t

State whether -10% exceeds growth recorded for C=C1CC2(OC1=O)C(=O)N(CCCCCCCCCCCCN1C(=O)C3(CC(=C)C(=O)O3)c3ccccc31)c1ccccc12 (stereo not given) .
f

State whether -10% exceeds growth recorded for COc1ccc(-c2cc(-c3cccnc3)nc3sc4c(=O)n(-c5ccc(C)cc5)cnc4c23)cc1OC .
f

State whether -10% exceeds growth recorded for CCN(CC)Cc1cc(Nc2c3ccc(Cl)cc3nc3c(C)cccc23)ccc1O .
t

State whether -10% exceeds growth recorded for CCOC(=S)SCc1ccc(Cl)cc1 .
f

----------
growth for assorted molecules
Tested on: OVCAR-3 ovarian
Assay Text: NCI-60 one-dose screen, 48 h (100 = growth as untreated, 0 = no growth, -100 = all killed)
Test Settings: 10 µM unless noted
The panel holds about 83,000 compounds, 20% with a hit somewhere; the sample as a whole holds those more often. Activity calls are given as the source filed them. The calls were made as follows: active = growth percent below 10; inactive = the rest.

Reference set, count: 3
>  <Molecule>
CN(C)CCOc1ccc(-c2nc3ccc(-c4nc5ccc(N6CCN(C)CC6)cc5[nH]4)cc3[nH]2)cc1

>  <growth>
94.9% (inactive)

$$$$
>  <Molecule>
O=c1c2c3c(sc2n2c(CCl)nnc2n1Cc1ccccc1)CCCC3

>  <growth>
-98.4% (active)

$$$$
>  <Molecule>
CCOC(=O)c1ccc2c(c1)nc(/C=C/c1ccc(Cl)cc1)n2-c1cc(C(C)(C)C)[nH]n1

>  <growth>
22.2% (inactive)

$$$$

I looked up O=c1cc(-c2ccccc2)[nH]c2ccccc12 and its growth for OVCAR-3 ovarian was -37.8% (active)

I looked up O=C1c2cc3c(cc2-c2c1c1cc(Cl)c(Cl)cc1c(=O)n2CCCn1ccnc1)OCO3 and its growth for OVCAR-3 ovarian was 5.18% (active)

I looked up COc1ccc(CN(c2ccc(C)cc2)C2OC(=O)c3ccccc32)cc1OC (configuration not stated) and its growth for OVCAR-3 ovarian was 113% (inactive)

I looked up COCCOc1ccc(-c2nc3ccc(-c4nc5ccc(N6CCN(C)CC6)cc5[nH]4)cc3[nH]2)cc1 and its growth for OVCAR-3 ovarian was 2.47% (active)

I looked up COc1cc(-c2nc3ccccc3s2)ccc1NC(=O)COc1ccc(Cl)cc1 and its growth for OVCAR-3 ovarian was 42.4% (inactive)

I looked up C=CCSc1nnc(-c2ccc(C(C)(C)C)cc2)n1-c1cccc(C(F)(F)F)c1 and its growth for OVCAR-3 ovarian was 40.9% (inactive)

I looked up c1ccc(Sc2ncnc3ccccc23)cc1 and its growth for OVCAR-3 ovarian was 71.2% (inactive)

I looked up Nc1nc(SCc2ccccc2)c2ncn(C3CCCC3)c2n1 and its growth for OVCAR-3 ovarian was 112% (inactive)

I looked up C[C@]12C[C@@H](c3ccoc3)OC(=O)[C@@H]1CC[C@]1(C)[C@@H]2CC[C@@H](O)[C@]1(C)O and its growth for OVCAR-3 ovarian was 112% (inactive)

I looked up COc1ccc(-c2cc(NC(=O)Nc3ccc(O)cc3)no2)cc1 and its growth for OVCAR-3 ovarian was 87.4% (inactive)
